Source listed as ChEMBL document CHEMBL3352305.

- study-system: Tubulin
- method: Displacement of BODIPY-FL-vinblastine from tubulin (unknown origin)
measured-property: EC50 (µM)
Numbers only, in µM.

Query: Consider the compound shown here: COc1c(-c2ccc(O)c(O)c2CC=C(C)C)oc2cc(O)cc(O)c2c1=O What is its recorded EC50?
Response: 14.7
